Target: AjKissR1 (Apostichopus japonicus, UniProt A0A5B7LK60)
Sequence (A0A5B7LK60 1-378): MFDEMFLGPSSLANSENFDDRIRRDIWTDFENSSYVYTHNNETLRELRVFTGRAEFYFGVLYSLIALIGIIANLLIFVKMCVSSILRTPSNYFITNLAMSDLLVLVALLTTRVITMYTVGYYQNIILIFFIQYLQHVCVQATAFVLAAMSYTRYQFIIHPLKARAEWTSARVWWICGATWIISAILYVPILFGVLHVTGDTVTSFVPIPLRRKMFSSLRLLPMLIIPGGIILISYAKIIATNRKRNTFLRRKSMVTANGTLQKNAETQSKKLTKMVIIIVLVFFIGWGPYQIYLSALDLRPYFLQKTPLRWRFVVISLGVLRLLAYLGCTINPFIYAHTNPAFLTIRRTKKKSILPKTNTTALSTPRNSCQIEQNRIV
Test: ERK1/2 phosphorylation (western blot) in HEK293 cells expressing FLAG-AjKissR1
Type: cell-based
Conditions: different concentrations for 5 min, immunoblot quantification, Figure 6A
Experimental: To examine the phosphorylation of ERK, cells that expressed AjKissr1/2 or other GPR54s were incubated for the indicated times with different concentrations of kisspeptins. […] Immunoreactive bands were detected with an enhanced chemiluminescent substrate (Beyotime), and the membrane was scanned using a Tanon 5200 Chemiluminescent Imaging System (Tanon Science and Technology, Shanghai, China).
Where no end group is shown, it is not given here.
MEASURE_NAME: EC50 (nM)

> print(dat)
                      substance                             target.entity  experimental.result
1  SRARPPLLPF-NH2 [AjKiss1b-10]  AjKissR1 (Apostichopus japonicus, UniProt A0A5B7LK60)                 31.6

---

Target: AjKissR2 (Apostichopus japonicus, UniProt A0A5B7LIE4)
Sequence (A0A5B7LIE4 1-327): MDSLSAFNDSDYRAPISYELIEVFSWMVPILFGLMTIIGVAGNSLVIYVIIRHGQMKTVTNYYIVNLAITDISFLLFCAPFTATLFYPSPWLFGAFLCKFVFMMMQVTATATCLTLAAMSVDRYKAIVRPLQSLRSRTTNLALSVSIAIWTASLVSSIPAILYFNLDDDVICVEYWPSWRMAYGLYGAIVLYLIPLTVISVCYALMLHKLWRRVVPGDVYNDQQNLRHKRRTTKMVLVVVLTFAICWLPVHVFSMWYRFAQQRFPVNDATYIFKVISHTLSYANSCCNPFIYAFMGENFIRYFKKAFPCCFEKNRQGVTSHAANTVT
Experiment: cell-based
Type: cell-based
pEC50: −log10 of the molar value. Where no end group is shown, it is not given here.
Below, each entry is listed alongside its reported pEC50.
MEASURE_NAME: pEC50

> print(dat)
                           substance  experimental.result
1       SRARPPLLPF-NH2 [AjKiss1b-10]                 7.56
2  SAVKNKNKSRARPPLLPF-NH2 [AjKiss1b]                 7.48
